Test system: U87-MG a human glioma
Assay info: Proliferation assay, U87-MG
Assay type: cell-based
Details: proliferation; read-out: U87-MG (IC50 μM)
Would you kindly list IC50 for each of these compounds?
One number for each entry, in µM.

In [3]: df
Out[3]:
                                   compound  measured_result
0  COc1cc2c(cc1C(N)=O)CC[C@@H]1[C@@H]2CC[C@]2(C)CCC[C@@H]12 [Compound 57]               10

Fill in: IC50 of COc1cc2c(cc1C(N)=O)CC[C@@H]1[C@@H]2CC[C@]2(C)C=CC[C@@H]12 [Compound 63] is ___
0.23

----------
Test system: PC3 a human prostate carcinoma
Assay info: Proliferation assay, PC3
Format: cell-based
Details: Example 2, Table VII; read-out: IC50 value (μM) PC3
Would you kindly list IC50 for each of these molecules?
Numbers only, in µM.

                            chemical_string  reported_property  unit_string  measured_result
0  COc1cc2c(cc1C(N)=O)CC[C@@H]1[C@@H]2CC[C@]2(C)[C@@H](OC)CC[C@@H]12               IC50           µM             1.14

Fill in: IC50 of COc1cc2c(cc1C(N)=O)CC[C@@H]1[C@@H]2CC[C@@]2(C)[C@H]1CCC21OCCO1 is ___
1.91

----------
Would you kindly list IC50 for each of these compounds?
Test system: Human umbilical vein endothelial cells (HUVEC)
Assay info: BrdU proliferation assay, HUVEC (anti-angiogenic activity)
Format: cell-based
Details: Example 2, Table VII; read-out: IC50 value (μM) HUVEC

>>> df
                            chemical_string  measured_result
0  COc1cc2c(cc1C(N)=O)CC[C@@H]1[C@@H]2CC[C@]2(C)[C@@H](OC)CC[C@@H]12          0.62 µM

Continue with the compound presented below.
Lab request: please report IC50 under test system Human umbilical vein endothelial cells (HUVEC) for COc1cc2c(cc1C(N)=O)CC[C@@H]1[C@@H]2CC[C@@]2(C)[C@H]1CCC21OCCO1
0.91 µM

----------
Would you kindly list IC50 for each of these molecules?
Test system: Human umbilical vein endothelial cells (HUVEC)
Assay info: BrdU proliferation assay, HUVEC (anti-angiogenic activity)
Assay type: cell-based
Details: Homo sapiens, HUVEC; BrdU DNA synthesis, 48 h exposure; read-out: HUVEC (IC50 μM)
Give bare numbers, in µM.

>>> df
                                   molecule                             target_system  measured_result
0  COc1cc2c(cc1O)CC[C@@H]1[C@@H]2CC[C@]2(C)[C@@H](O)CC[C@@H]12 [Compound 1, 2-Methoxyestradiol, reference compound]  Human umbilical vein endothelial cells (HUVEC)             0.68

Give one value of IC50 per listed molecule.
1. COc1cc2c(cc1C(N)=O)CC[C@@H]1[C@@H]2CC[C@]2(C)C(=O)CC[C@@H]12
2. C=C1CC[C@H]2[C@@H]3CCc4cc(C(N)=O)c(OC)cc4[C@H]3CC[C@]12C

1: 5.46; 2: 0.12

meta.source: patent US20070004689A1
